Just for reference, the supplement of paper PMC9112550 is where these values come from.

test system: Escherichia coli TOP10; experiment: shrunken log2 fold change of peptide-encoding DNA abundance (4.5 h post-induction vs induction); higher = less antimicrobial activity (less host growth inhibition); settings: time post-induction: 4.5 h; library: site-saturation at positions 5, 18, 19, 20
Reported Endpoint: shrunken log2 fold change
Lab note: record the figure alone, no unit after it.

**Query** Fill in reported shrunken log2 fold change for this entry: RRIRCRPPRLPRPRPRPELWPRP
**Result** 0.732

**Query** Fill in reported shrunken log2 fold change for this entry: RRIRLRPPRLPRPRPRPQEVPRP
**Result** 0.0641

**Query** Fill in reported shrunken log2 fold change for this entry: RRIRARPPRLPRPRPRPKVCPRP
**Result** -0.132

**Query** Fill in reported shrunken log2 fold change for this entry: RRIRYRPPRLPRPRPRPDTSPRP
**Result** -0.0824

**Query** Fill in reported shrunken log2 fold change for this entry: RRIRERPPRLPRPRPRPICIPRP
**Result** -0.0731

**Query** Fill in reported shrunken log2 fold change for this entry: RRIRTRPPRLPRPRPRPGRIPRP
**Result** -0.171

**Query** Fill in reported shrunken log2 fold change for this entry: RRIRYRPPRLPRPRPRPAIYPRP
**Result** -0.121

**Query** Fill in reported shrunken log2 fold change for this entry: RRIRQRPPRLPRPRPRPNVRPRP
**Result** 0.0221

**Query** Fill in reported shrunken log2 fold change for this entry: RRIRFRPPRLPRPRPRPTKYPRP
**Result** -0.635

**Query** Fill in reported shrunken log2 fold change for this entry: RRIRERPPRLPRPRPRPYSAPRP
**Result** -0.269

**Query** Fill in reported shrunken log2 fold change for this entry: RRIRERPPRLPRPRPRPAHMPRP
**Result** -0.291

**Query** Fill in reported shrunken log2 fold change for this entry: RRIRMRPPRLPRPRPRPKCPPRP
**Result** 0.108

**Query** Fill in reported shrunken log2 fold change for this entry: RRIRQRPPRLPRPRPRPAYRPRP
**Result** -0.216

**Query** Fill in reported shrunken log2 fold change for this entry: RRIRYRPPRLPRPRPRPNPNPRP
**Result** -0.735

====

system: Escherichia coli TOP10; experiment: shrunken log2 fold change of peptide-encoding DNA abundance (4.5 h post-induction vs induction); higher = less antimicrobial activity (less host growth inhibition); conditions: time post-induction: 4.5 h; library: site-saturation at positions 5, 18, 19, 20
// label = T if shrunken log2 fold change is not less than 0.0005, otherwise F

**Query** Test whether the sequence RRIRMRPPRLPRPRPRPVWKPRP records shrunken log2 fold change of 0.0005 or higher.
**Result** T

**Query** Test whether the sequence RRIRNRPPRLPRPRPRPDHMPRP records shrunken log2 fold change of 0.0005 or higher.
**Result** F

**Query** Test whether the sequence RRIRWRPPRLPRPRPRPKLNPRP records shrunken log2 fold change of 0.0005 or higher.
**Result** T

**Query** Test whether the sequence RRIRDRPPRLPRPRPRPGMGPRP records shrunken log2 fold change of 0.0005 or higher.
**Result** T

====

tested on: Escherichia coli TOP10; test: shrunken log2 fold change of peptide-encoding DNA abundance (4.5 h post-induction vs induction); higher = less antimicrobial activity (less host growth inhibition); conditions: time post-induction: 4.5 h; library: site-saturation at positions 5, 18, 19, 20;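 note: peptides expressed intracellularly from a pBAD plasmid library in pooled LB shake-flask culture, induced with 0.3% L-arabinose, DNA abundance read by NGS, three biological replicates, DESeq2 with apeglm shrinkage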
Task for the reader: assign each of the following sequences its reported shrunken log2 fold change.
Lab note: record the figure alone, no unit after it.

**Query** Fill in reported shrunken log2 fold change for this entry: RRIRDRPPRLPRPRPRPPISPRP
**Result** 0.024

**Query** Fill in reported shrunken log2 fold change for this entry: RRIRDRPPRLPRPRPRPWVEPRP
**Result** 0.105

**Query** Fill in reported shrunken log2 fold change for this entry: RRIRNRPPRLPRPRPRPHMTPRP
**Result** 0.0432

**Query** Fill in reported shrunken log2 fold change for this entry: RRIRFRPPRLPRPRPRPWVKPRP
**Result** -0.00968

**Query** Fill in reported shrunken log2 fold change for this entry: RRIRRRPPRLPRPRPRPETYPRP
**Result** 0.0872

**Query** Fill in reported shrunken log2 fold change for this entry: RRIRRRPPRLPRPRPRPWNPPRP
**Result** -0.212

**Query** Fill in reported shrunken log2 fold change for this entry: RRIRWRPPRLPRPRPRPLRGPRP
**Result** 1.01

**Query** Fill in reported shrunken log2 fold change for this entry: RRIRQRPPRLPRPRPRPYDCPRP
**Result** -0.195

**Query** Fill in reported shrunken log2 fold change for this entry: RRIRGRPPRLPRPRPRPFPPPRP
**Result** 0.378

**Query** Fill in reported shrunken log2 fold change for this entry: RRIRHRPPRLPRPRPRPLLLPRP
**Result** -0.208
